targetSystem: recombinant IL4I1 (Homo sapiens, UniProt Q96RQ9)
Construct: purchased R&D Systems 5684-AO-020
Sequence (Q96RQ9 22-567): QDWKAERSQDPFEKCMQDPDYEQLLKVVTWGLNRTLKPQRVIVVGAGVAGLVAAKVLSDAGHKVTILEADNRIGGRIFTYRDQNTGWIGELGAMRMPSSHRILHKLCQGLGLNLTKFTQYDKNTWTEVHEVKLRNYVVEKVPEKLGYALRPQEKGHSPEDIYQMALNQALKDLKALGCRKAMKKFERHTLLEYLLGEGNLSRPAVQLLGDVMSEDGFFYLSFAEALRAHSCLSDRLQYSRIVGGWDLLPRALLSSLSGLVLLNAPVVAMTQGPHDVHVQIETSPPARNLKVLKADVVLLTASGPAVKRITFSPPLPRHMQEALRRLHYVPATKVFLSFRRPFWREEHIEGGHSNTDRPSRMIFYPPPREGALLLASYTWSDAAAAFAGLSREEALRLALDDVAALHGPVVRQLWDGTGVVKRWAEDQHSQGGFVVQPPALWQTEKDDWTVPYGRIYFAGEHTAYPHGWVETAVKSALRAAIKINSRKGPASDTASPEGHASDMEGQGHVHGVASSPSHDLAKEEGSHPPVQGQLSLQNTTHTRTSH
testProtocol: IL4I1 Enzymatic Assay (Amplex Red/HRP coupled H2O2 detection)
Type: biochemical
setupConditions: 240 min; four-hour pre-incubation with compound; 1 nM IL4I1, 1 mM each Phe/Tyr/Trp; ten-point titration; fluorescence readout; read-out: Potency EC50 (nM) (240 min)
parameterMeasured: EC50 (nM)

Check out these entries, answers already filled in.
> print(dat)
                                   compound                              targetsystem  parametermeasured  readoutunit  assayvalue
1     CNC(=O)c1csc(Cn2c(=O)[nH]c3ccccc32)c1  recombinant IL4I1 (Homo sapiens, UniProt Q96RQ9)               EC50           nM           6
2  CNC(=O)c1cc(Cn2c(=O)[nH]c3ccccc32)ccc1OC  recombinant IL4I1 (Homo sapiens, UniProt Q96RQ9)               EC50           nM          12
3              O=c1[nH]c2ccccc2n1CCN1CCCCC1  recombinant IL4I1 (Homo sapiens, UniProt Q96RQ9)               EC50           nM        1240
4  O=C1CCCN1Cc1ccc(Cn2c(=O)[nH]c3ccccc32)cc1F  recombinant IL4I1 (Homo sapiens, UniProt Q96RQ9)               EC50           nM          16
5  CC(c1ccccc1)n1c(=O)[nH]c2ccccc21 (centres unmarked)  recombinant IL4I1 (Homo sapiens, UniProt Q96RQ9)               EC50           nM        8900
6    O=C1NCc2ccc(Cn3c(=O)[nH]c4ccccc43)cc21  recombinant IL4I1 (Homo sapiens, UniProt Q96RQ9)               EC50           nM          22
7  O=c1[nH]c2ccccc2n1Cc1ccc(CN2CCCS2(=O)=O)cc1  recombinant IL4I1 (Homo sapiens, UniProt Q96RQ9)               EC50           nM           6
8  O=C1CCCN1Cc1ccc(Cn2c(=O)[nH]c3cc(F)ccc32)cc1 (single isomer, unassigned)  recombinant IL4I1 (Homo sapiens, UniProt Q96RQ9)               EC50           nM         389

[I] O=c1[nH]c2ccccc2n1CCC1CCCO1 (centres unmarked)
[II] O=C(NCC(F)(F)F)c1cccc(Cn2c(=O)[nH]c3ccccc32)c1
Two entries are listed, I and II . Which one carries the higher EC50? Indicate your choice by writing its label.
I
